Test system: IL-6 levels in human whole blood stimulated with a TLR2 agonist
Experiment: IRAK4 Whole Blood Assay (lipoteichoic acid/TLR2-stimulated IL-6)
Type: cell-based
Details: Homo sapiens, lipoteichoic acid 10 μg/mL, IL-6 readout
test.readout: pEC50
Answers are plain numbers, as −log10 of the molar value.

Example entries begin here.
compound: CNC(=O)c1ccc(Nc2cc(-c3cnn4cc(C#N)cnc34)ncc2C(=O)NC[C@@H](F)C(C)(C)O)cc1
pEC50: 6.57
//
compound: CC(C)(O)[C@H](F)CNC(=O)c1cnc(-c2cnc3cc(Cl)cnn23)cc1NC1CC(F)(F)C1
pEC50: 6.09
//
compound: CCCn1cc(Nc2cc(-c3cnc4cc(C#N)cnn34)ncc2C(=O)NC[C@@H](F)C(C)(C)O)cn1
pEC50: 6.44
//
compound: CC(C)(O)[C@H](F)CNC(=O)c1cnc(-c2cnc3cc(Cl)cnn23)cc1NC1CC(F)C1 (stereo partly shown)
pEC50: 6.26

For each of the items listed, what is its pEC50?
1. CC(C)Nc1cc(-c2cnc3cc(C#N)cnn23)ncc1C(=O)NC[C@H](F)C(C)(C)O
2. CC(C)(O)[C@H](F)CNC(=O)c1cnc(-c2cnc3cc(Cl)cnn23)cc1N[C@H]1CC[C@H](C(C)(C)F)CC1
3. CC(C)(O)[C@H]1CC[C@H](NC(=O)c2cnc(-c3cnc4cc(C#N)cnn34)cc2Nc2cnn(C3CC3)c2)CC1

1: 6.64; 2: 6.32; 3: 6.74

====

Test system: IL-6 levels in human whole blood stimulated with a TLR2 agonist
Assay: IRAK4 Whole Blood Assay (lipoteichoic acid/TLR2-stimulated IL-6)
Format: cell-based
Settings: Homo sapiens, lipoteichoic acid 10 μg/mL, IL-6 readout
test.readout: EC50

# annotated cases, reported EC50 shown
compound: CC(C)(O)[C@H](F)CNC(=O)c1cnc(-c2cnc3cc(C#N)cnn23)cc1NC1CCOC1 (some centres unmarked) [Example 201]
assay.system: IL-6 levels in human whole blood stimulated with a TLR2 agonist
EC50: 80 nM
--
compound: CO[C@H]1CC[C@H](Nc2cc(-c3cnc4cc(C#N)cnn34)ncc2C(=O)NC[C@@H](F)C(C)(C)O)CC1 [Example 196]
assay.system: IL-6 levels in human whole blood stimulated with a TLR2 agonist
EC50: 640 nM
--
compound: CC(C)(O)[C@H](F)CNC(=O)c1cnc(-c2cnc3cc(Cl)cnn23)cc1Nc1cnn(CCCF)c1 [Example 283]
assay.system: IL-6 levels in human whole blood stimulated with a TLR2 agonist
EC50: 340 nM
--
compound: CC(C)Nc1cc(-c2ccc3cc(C#N)cnn23)ncc1C(=O)NC[C@@H](F)C(C)(C)O [Example 193]
assay.system: IL-6 levels in human whole blood stimulated with a TLR2 agonist
EC50: 260 nM
--
compound: CC(C)(C)Nc1cc(-c2cnc3cc(C#N)cnn23)ncc1C(=O)NC[C@@H](F)C(C)(C)O [Example 187]
assay.system: IL-6 levels in human whole blood stimulated with a TLR2 agonist
EC50: 200 nM
--
compound: CC(C)(O)[C@H]1CC[C@H](NC(=O)c2cnc(-c3cnn4cc(Cl)cnc34)cc2Nc2cnn(C3CC3)c2)CC1 [Example 254]
assay.system: IL-6 levels in human whole blood stimulated with a TLR2 agonist
EC50: 470 nM
--
compound: CCNc1cc(-c2cnc3cc(C#N)cnn23)ncc1C(=O)NC[C@@H](F)C(C)(C)O [Example 188]
assay.system: IL-6 levels in human whole blood stimulated with a TLR2 agonist
EC50: 240 nM

Alright, here's another compound for you.
The compound listed as CC(C)(O)[C@H](F)CNC(=O)c1cnc(-c2cnc3cc(C#N)cnn23)cc1NC1CCC1 [Example 183] has a reported EC50 of 750 nM
